The measurements presented in this section are drawn from the supplement of paper PMC10307832.

Reported relative viability values follow for various compounds
Test system: NCI-H460
Test: relative viability (nuclei count vs DMSO), 5 days (fraction); higher = more cells survive
Conditions: first compound 0.02 µM
Write the value as a bare number.

The following compounds have reported results that may help.
Lookup: Output measured relative viability for this item: CC(=O)O[C@@]12CO[C@@H]1C[C@H](O)[C@@]1(C)C(=O)[C@H](O)C3=C(C)[C@@H](OC(=O)[C@H](O)[C@@H](NC(=O)OC(C)(C)C)c4ccccc4)C[C@@](O)([C@@H](OC(=O)c4ccccc4)[C@H]21)C3(C)C [Docetaxel] + Nc1ncn([C@H]2C[C@H](O)[C@@H](CO)O2)c(=O)n1 [Decitabine] (partner 2 µM)
Found: 0.0286

Lookup: Output measured relative viability for this item: CC(=O)O[C@@]12CO[C@@H]1C[C@H](O)[C@@]1(C)C(=O)[C@H](O)C3=C(C)[C@@H](OC(=O)[C@H](O)[C@@H](NC(=O)OC(C)(C)C)c4ccccc4)C[C@@](O)([C@@H](OC(=O)c4ccccc4)[C@H]21)C3(C)C [Docetaxel] + NC(=O)Nc1cc(-c2cccc(F)c2)sc1C(=O)N[C@H]1CCCNC1 [AZD7762] (partner 0.2 µM)
Found: 0.0404

Moving on to the next compound.
Lookup: Output measured relative viability for this item: CC(=O)O[C@@]12CO[C@@H]1C[C@H](O)[C@@]1(C)C(=O)[C@H](O)C3=C(C)[C@@H](OC(=O)[C@H](O)[C@@H](NC(=O)OC(C)(C)C)c4ccccc4)C[C@@](O)([C@@H](OC(=O)c4ccccc4)[C@H]21)C3(C)C [Docetaxel] + COc1cccc2cc(-c3nc([C@H]4CC[C@H](C(=O)O)CC4)n4ncnc(N)c34)[nH]c12 [OSI-027] (partner 0.5 µM)
Found: 0.0139

====

Test system: NCI-H2085
Assay: relative viability (nuclei count vs DMSO), 5 days (fraction); higher = more cells survive
Details: first compound 50 µM
Strictly below 0.5 in relative viability: Met. Otherwise: Not met.

// below: answered compounds
Lookup: Lab note: confirm whether the reported relative viability for this compound is below 0.5, equality not counting. compound: O=C(O)CCCCC(CCSCc1ccccc1)SCc1ccccc1 (stereo unspecified) [CPI-613] + O=C(c1cc(Cc2n[nH]c(=O)c3ccccc23)ccc1F)N1CCN(C(=O)C2CC2)CC1 [Olaparib] (partner 8 µM)
Found: Not met

Lookup: Lab note: confirm whether the reported relative viability for this compound is below 0.5, equality not counting. compound: O=C(O)CCCCC(CCSCc1ccccc1)SCc1ccccc1 (stereo unspecified) [CPI-613] + CS(=O)(=O)N1CCN(Cc2cc3nc(-c4cccc5[nH]ncc45)nc(N4CCOCC4)c3s2)CC1 [Pictilisib] (partner 1 µM)
Found: Met

Lookup: Lab note: confirm whether the reported relative viability for this compound is below 0.5, equality not counting. compound: O=C(O)CCCCC(CCSCc1ccccc1)SCc1ccccc1 (stereo unspecified) [CPI-613] + CC(=O)c1c(C)c2cnc(Nc3ccc(N4CCNCC4)cn3)nc2n(C2CCCC2)c1=O [Palbociclib] (partner 0.5 µM)
Found: Met

Lookup: Lab note: confirm whether the reported relative viability for this compound is below 0.5, equality not counting. compound: O=C(O)CCCCC(CCSCc1ccccc1)SCc1ccccc1 (stereo unspecified) [CPI-613] + Cc1cc(Nc2cc(N3CCN(C)CC3)nc(Sc3ccc(NC(=O)C4CC4)cc3)n2)n[nH]1 [Tozasertib] (partner 0.1 µM)
Found: Not met

Lookup: Lab note: confirm whether the reported relative viability for this compound is below 0.5, equality not counting. compound: O=C(O)CCCCC(CCSCc1ccccc1)SCc1ccccc1 (stereo unspecified) [CPI-613] + Cc1nc(Nc2ncc(C(=O)Nc3c(C)cccc3Cl)s2)cc(N2CCN(CCO)CC2)n1 [Dasatinib] (partner 0.075 µM)
Found: Met

---
Lookup: Lab note: confirm whether the reported relative viability for this compound is below 0.5, equality not counting. compound: O=C(O)CCCCC(CCSCc1ccccc1)SCc1ccccc1 (stereo unspecified) [CPI-613] + C[C@@H](Oc1cc(-c2cnn(C3CCNCC3)c2)cnc1N)c1c(Cl)ccc(F)c1Cl [Crizotinib] (partner 1 µM)
Found: Not met
